FYI, the data here is from ChEMBL document CHEMBL4834403.

test system: THLE-2; experiment: Cytotoxicity against human THLE-2 cells assessed as decrease in cell viability measured after 72 hrs by Vialight-plus cell proliferation assay; format: cell-based; conditions: thle-2, 72 h
Rule for this label: Satisfied means LC50 is less than 7 µM; Not satisfied means LC50 is at least 7 µM.

In plain terms, does COc1cc2c(NCC3CCN(Cc4ccc(C(=O)NO)cc4)CC3)cc(-c3ccc(C)o3)nc2cc1OCCCN1CCCC1 come in under 7 µM for LC50? Satisfied

In plain terms, does COc1cc2c(NCC3CCN(c4ncc(C(=O)NO)cn4)CC3)cc(-c3ccc(C)o3)nc2cc1OCC1CCNCC1 come in under 7 µM for LC50? Not satisfied

In plain terms, does COc1cc2c(NCC3CCC(C(=O)NO)CC3)cc(-c3ccc(C)o3)nc2cc1OCCCN1CCCC1 (stereo not drawn) come in under 7 µM for LC50? Not satisfied

====

Kindly state pIC50 for each of the entries shown.
target: Histone deacetylase 1 (Homo sapiens)
Sequence (Q13547 whole entry): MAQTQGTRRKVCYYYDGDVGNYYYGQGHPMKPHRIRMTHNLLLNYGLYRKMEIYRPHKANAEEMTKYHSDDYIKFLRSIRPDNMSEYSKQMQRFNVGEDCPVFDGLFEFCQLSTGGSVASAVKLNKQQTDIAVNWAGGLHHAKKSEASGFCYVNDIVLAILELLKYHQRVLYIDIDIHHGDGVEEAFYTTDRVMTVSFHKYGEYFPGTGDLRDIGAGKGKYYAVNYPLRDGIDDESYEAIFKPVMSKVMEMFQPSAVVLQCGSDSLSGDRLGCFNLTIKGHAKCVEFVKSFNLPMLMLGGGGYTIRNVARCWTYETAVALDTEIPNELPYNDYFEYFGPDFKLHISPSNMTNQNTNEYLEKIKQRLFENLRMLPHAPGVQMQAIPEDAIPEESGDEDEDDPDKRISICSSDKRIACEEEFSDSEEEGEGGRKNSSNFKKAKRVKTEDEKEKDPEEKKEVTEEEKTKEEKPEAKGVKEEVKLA
Answers are plain numbers, as −log10 of the molar value.

Some entries whose results are on file:
| Molecule | pIC50 |
| --- | --- |
| COc1cc2c(NCC3CCN(c4ncc(C(=O)NO)cn4)CC3)cc(-c3ccc(C)o3)nc2cc1OCC1CCNCC1 | 8.22 |
| COc1cc2c(NCC3CCC(c4ccc(C(=O)NO)cc4)CC3)cc(-c3ccc(C)o3)nc2cc1OCCCN1CCCC1 (configuration not stated) | 7.47 |
| COc1cc2c(NCC3CCN(c4ncc(C(=O)NO)cn4)CC3)cc(C)nc2cc1OCCCN1CCCC1 | 8.15 |
| COc1cc2c(NCC3CCN(c4ccc(C(=O)NO)cc4)CC3)cc(-c3ccc(C)o3)nc2cc1OCCCN1CCCC1 | 7.11 |
| COc1cc2c(NC3CCN(c4ccc(C(=O)NO)cc4)CC3)cc(-c3ccc(C)o3)nc2cc1OCCCN1CCCC1 | 6.38 |
| COc1cc2nc(-c3ccc(C)o3)cc(NCC3C4CCC3CN(c3ncc(C(=O)NO)cn3)C4)c2cc1OC (configuration not stated) | 7.66 |

Fill in pIC50 for each of the 6 molecules listed.
1. COc1cc2c(NCC3CCC(C(=O)NO)CC3)cc(-c3ccc(C)o3)nc2cc1OCCCN1CCCC1 (configuration not stated)
2. COc1cc2nc(-c3ccc(C)o3)cc(NCC3CCN(c4ccc(C(=O)NO)cn4)CC3)c2cc1OC
3. COc1cc2nc(-c3ccc(C)o3)cc(NCc3ccc(C(=O)NO)cc3)c2cc1OC
4. COc1cc2nc(C3CCCCC3)cc(NCC3CCN(c4ncc(C(=O)NO)cn4)CC3)c2cc1OC
5. COc1cc2nc(-c3ccc(C)o3)cc(NCC3CCN(c4ncc(C(=O)NO)cn4)CC3)c2cc1OC
6. COc1cc2c(NCc3ccc(C(=O)NO)cc3)cc(-c3ccc(C)o3)nc2cc1OCCCN1CCCC1

1: 7.66; 2: 6.84; 3: 7.85; 4: 8.70; 5: 8.15; 6: 8.05

Fill in pIC50 for each of the 5 molecules listed.
1. COc1cc2nc(-c3ccc(C)o3)cc(NCC3CCN(Cc4ccc(C(=O)NO)cc4)CC3)c2cc1OC
2. COc1cc2c(NCC3CCN(c4ncc(C(=O)NO)cn4)CC3)cc(-c3ccc(C)o3)nc2cc1OCCCN1CCCC1
3. COc1cc2c(NCc3ccc(-c4ccc(C(=O)NO)cc4)cc3)cc(-c3ccc(C)o3)nc2cc1OCCCN1CCCC1
4. COc1cc2c(NC3CCN(Cc4ccc(C(=O)NO)cc4)CC3)cc(-c3ccc(C)o3)nc2cc1OCCCN1CCCC1
5. COc1cc2c(NC3CCN(c4ncc(C(=O)NO)cn4)CC3)cc(C)nc2cc1OCCCN1CCCC1

1. 6.48
2. 8.52
3. 7.35
4. 6.83
5. 7.77

Fill in pIC50 for each of the 7 molecules listed.
1. COc1cc2c(NCC3CCN(Cc4ccc(C(=O)NO)cc4)CC3)cc(-c3ccc(C)o3)nc2cc1OCCCN1CCCC1
2. COc1cc2nc(-c3ccc(C)s3)cc(NCC3CCN(c4ncc(C(=O)NO)cn4)CC3)c2cc1OC
3. COc1cc2nc(-c3ccc(C)o3)cc(NC3CCN(c4ncc(C(=O)NO)cn4)CC3)c2cc1OC
4. COc1cc2nc(-c3ccc(C)o3)cc(NCC3CCN(C4CC(C(=O)NO)C4)CC3)c2cc1OC (configuration not stated)
5. COc1cc2nc(-c3ccc(C)o3)cc(NCC3CCN(Cc4ccc(C(=O)NO)s4)CC3)c2cc1OC
6. COc1cc2nc(-c3ccc(C)o3)cc(NCC3CCC(C(=O)NO)CC3)c2cc1OC (configuration not stated)
7. COc1cc2nc(-c3ccc(C)o3)cc(N[C@H]3CC[C@@H](C(=O)NO)CC3)c2cc1OC

1: 6.28; 2: 7.77; 3: 7.20; 4: 6.34; 5: 6.52; 6: 7.42; 7: 6.40
